- System: cholesterol biosynthesis
- experiment.notes: Inhibitory activity against cholesterol biosynthesis (method of J. Biol. Chem. 234, 2835 (1959))
- Format: biochemical
- details: method of Journal of Biological Chemistry, 234, 2835 (1959)
Returns Criterion met if the recorded concentration required to inhibit cholesterol biosynthesis by 50% is greater than or equal to 0.01 µg/mL, and Criterion not met otherwise.

Answered cases to consult:
# compound, assigned.label
data = [
    ("CC(O)[C@H](C)C(=O)O[C@H]1C[C@H](O)C=C2C=C[C@H](C)[C@H](CC[C@@H](O)C[C@@H](O)CC(=O)O)[C@H]21 (single isomer, unassigned) [Sodium 3\",6'β-dihydroxy-ML-236B carboxylate, Substance B]", "Criterion met"),
    ("CC(O)[C@H](C)C(=O)O[C@H]1CCC=C2C=C[C@H](C)[C@H](CC[C@@H]3C[C@@H](O)CC(=O)O3)[C@H]21 (some centres unmarked) [3\"-hydroxy-ML-236B lactone, 3\"-Hydroxy-ML-236B lactone]", "Criterion met"),
]

[ask] Determine whether this compound has concentration required to inhibit cholesterol biosynthesis by 50% no lower than 0.01 µg/mL: CC(O)[C@H](C)C(=O)O[C@H]1CCC=C2C=C[C@H](C)[C@H](CC[C@@H](O)C[C@@H](O)CC(=O)O)[C@H]21 (some centres unmarked) [Sodium 3"-hydroxy-ML-236B carboxylate]
[reply] Criterion not met

[ask] Determine whether this compound has concentration required to inhibit cholesterol biosynthesis by 50% no lower than 0.01 µg/mL: CC(O)[C@H](C)C(=O)O[C@H]1C[C@H](O)C=C2C=C[C@H](C)[C@H](CC[C@@H](O)C[C@@H](O)CC(=O)O)[C@H]21 (single isomer, unassigned) [Sodium 3",6'β-dihydroxy-ML-236B carboxylate, Substance A]
[reply] Criterion not met
